- Tested on: human lung cancer strain NCI-H441;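 also: cell proliferation inhibition after four days measured by CellTiter-Glo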
quantity_name: IC50 (nM)

* CCO[C@@H]1C[C@H]2C(=O)NC3(CC(C)(C)C3)C(=O)N(C)[C@@H](C3CCCC3)C(=O)N(C)[C@H](C(=O)N(CC)CC)CC(=O)N(C)[C@@H](CC)C(=O)N[C@@H]([C@@H](C)CC)C(=O)N(C)CC(=O)N(C)[C@H]3C/C=C\CCN(C3=O)[C@@H](Cc3ccc(C(F)(F)F)cc3)C(=O)N(C)CC(=O)N[C@@H](CCc3cc(F)c(C(F)(F)F)c(F)c3)C(=O)N2C1 | 9.7
* CCO[C@@H]1C[C@H]2C(=O)NC3(CCC3)C(=O)N(C)[C@@H](C(CC)CC)C(=O)N(C)[C@H](C(=O)N3CCCC3)CC(=O)N(C)[C@@H](C)C(=O)N[C@@H]([C@@H](C)CC)C(=O)N(C)CC(=O)N(C)[C@H]3C/C=C\CCN(C3=O)[C@@H](CC3CCC(F)(F)CC3)C(=O)N(C)CC(=O)N[C@@H](CCc3cc(F)c(C(F)(F)F)c(F)c3)C(=O)N2C1 | 47.4
* CCCO[C@@H]1C[C@H]2C(=O)NC3(CCC3)C(=O)N(C)[C@@H](C3CCCC3)C(=O)N(C)[C@H](C(=O)N3CCOCC3)CC(=O)N(C)[C@@H](CC(C)C)C(=O)N[C@@H]([C@@H](C)CC)C(=O)N(C)CC(=O)N(C)[C@H]3CCCCN(C3=O)[C@@H](Cc3ccc(C(F)(F)F)cc3)C(=O)N(C)CC(=O)N[C@@H](CCc3cc(F)c(C(F)(F)F)c(F)c3)C(=O)N2C1 | 13

====

- measured_on: GDP-bound KRAS wild-type protein (Homo sapiens)
- Sequence (P01116 whole entry): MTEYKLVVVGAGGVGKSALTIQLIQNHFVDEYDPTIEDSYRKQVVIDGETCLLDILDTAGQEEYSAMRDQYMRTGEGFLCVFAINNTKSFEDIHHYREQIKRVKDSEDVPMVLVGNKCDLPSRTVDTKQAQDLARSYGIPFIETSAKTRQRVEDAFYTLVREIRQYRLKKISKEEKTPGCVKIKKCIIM
- experiment_notes: Binding to KRAS by surface plasmon resonance (SPR), Single Cycle Kinetics
- condition_set: SPR, Single Cycle Kinetics, GDP-bound KRAS wild-type protein; read-out: KRAS KD
*1 amine or outer side, *2 acyl side, *3 side chain or, on linkers, in order; H or OH if unused. Where a SMILES comes first, the peptide text is derived from it. Bridges are numbered along the chain shown (N, C = ends). [ ]: non-standard residue; d: D form. hPhe(3-Cl-4-CF3) = N[C@@H](CCc1ccc(C(F)(F)F)c(Cl)c1)C(=O)O; NPrPhe(4-CF3) = CCCN[C@@H](Cc1ccc(C(F)(F)F)cc1)C(=O)O; NEtAsp = CCN([C@@H](CC(=O)[*:3])C(=O)[*:2])[*:1]; NMeGly(cPent) = CN[C@H](C(=O)O)C1CCCC1; NMeL = CN[C@@H](CC(C)C)C(=O)O; NMeA = CN[C@@H](C)C(=O)O; Aze = O=C(O)[C@@H]1CCN1; Ac4c = NC1(C(=O)O)CCC1; Sar = CNCC(=O)O
quantity_name: Kd (nM)

- CCCN1C(=O)[C@@H]2CCN2C(=O)[C@H](C)N(C)C(=O)[C@H]([C@@H](C)CC)NC(=O)[C@H](CC(C)C)N(C)C(=O)C[C@@H](C(=O)N(C)C)N(CC)C(=O)[C@H](C2CCCC2)N(C)C(=O)C2(CCC2)NC(=O)[C@@H]2CCCN2C(=O)[C@H](CCc2ccc(C(F)(F)F)c(Cl)c2)NC(=O)CN(C)C(=O)[C@@H]1Cc1ccc(C(F)(F)F)cc1 [PP1957] ([NMeL]I[NMeA][Aze][NPrPhe(4-CF3)][Sar][hPhe(3-Cl-4-CF3)]P[Ac4c][NMeGly(cPent)][NEtAsp]-NMe2; lactam N-11): 0.36

The measured values listed here are drawn from patent US20240158446A1.
